- Tested on: rat cytochrome P450 3A
- CONDITION PARAMETERS: oil ingredient 0.001 wt. %; from solvent baseline
MEASUREMENT NAME: % inhibition of cyclosporine metabolism, 0.001% (Table 2)

Consider the worked cases shown below.
>>> value_observed("C=CC(C)(O)CCC=C(C)C (racemic) [Linalool-(±), 3,7-Dimethyl-1,6-octadien-3-ol]")
"72.0%"
>>> value_observed("CC1(C)C(=O)[C@]2(C)CC[C@H]1C2 [Fenchone-(1R)-(-)]")
"38%"

I have 5 molecules here; please give me % inhibition of cyclosporine metabolism, 0.001% (Table 2) for each one.
1. Cc1ccc(C(C)C)cc1O
2. C=C1CC/C=C(\C)CC[C@@H]2[C@@H]1CC2(C)C [Caryophyllene, trans-(-), β Caryophyllene]
3. CC(C)[C@@H]1CC[C@@H](C)CC1=O [Menthone-(-), p-Menthan-3-one]
4. C=C(C)[C@@H]1CC=C(C)C(=O)C1 [Carvone-(R)-(-), p-Mentha-6,8-dien-2-one]
5. C/C=C/c1ccc(OC)cc1 [Anethole, trans-, 4-Propenylanisole]

1: 93%; 2: 85%; 3: 52%; 4: 69%; 5: 53%

# get_value(readout='% inhibition of cyclosporine metabolism, 0.001% (Table 2)', item= `C=CC(=C)CCC=C(C)C` )
13%
